# test-system: recombinant human MMP-2 (Homo sapiens, UniProt P08253)
# Sequence (P08253 110-660): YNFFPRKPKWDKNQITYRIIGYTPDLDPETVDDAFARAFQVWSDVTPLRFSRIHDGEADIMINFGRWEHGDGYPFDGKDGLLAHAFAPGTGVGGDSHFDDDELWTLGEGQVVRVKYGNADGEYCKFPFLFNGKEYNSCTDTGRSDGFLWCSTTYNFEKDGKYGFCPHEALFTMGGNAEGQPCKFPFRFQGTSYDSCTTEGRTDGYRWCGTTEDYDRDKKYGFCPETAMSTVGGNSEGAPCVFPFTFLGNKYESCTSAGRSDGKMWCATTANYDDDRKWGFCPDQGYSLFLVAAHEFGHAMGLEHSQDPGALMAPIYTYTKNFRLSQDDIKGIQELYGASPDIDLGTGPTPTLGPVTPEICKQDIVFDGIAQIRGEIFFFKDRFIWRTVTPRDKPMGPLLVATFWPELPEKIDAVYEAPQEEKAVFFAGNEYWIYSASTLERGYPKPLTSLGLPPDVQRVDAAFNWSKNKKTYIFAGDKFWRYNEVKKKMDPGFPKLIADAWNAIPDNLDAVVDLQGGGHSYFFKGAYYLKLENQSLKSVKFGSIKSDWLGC
# test-protocol: biochemical
# protocol-conditions: Inhibition Table B
recorded-metric: IC50 (nM)
Provide only the numeric value, understood in nM.

// IC50 lookup, key: O=C(C1CCN(c2ccc(S(=O)(=O)C3(C(=O)NO)CCOCC3)cc2)CC1)N1CCC(N2CCCC2)CC1 [Example 178] 540

// IC50 lookup, key: O=C([C@@H]1CCCN1)N1CCN(c2ccc(S(=O)(=O)C3(C(=O)NO)CCOCC3)cc2)CC1 [Example 203] 31

// IC50 lookup, key: O=C(C1CCN(c2ccc(S(=O)(=O)C3(C(=O)NO)CCOCC3)cc2)CC1)N1CCCCCC1 [Example 165] 330

----------
# test-system: recombinant human MMP-13 (Homo sapiens, UniProt P45452)
# test-protocol: biochemical
# protocol-conditions: Inhibition Table B
Where a name gives a salt, the structure may show the parent alone.
recorded-metric: IC50 (nM)
Provide only the numeric value, understood in nM.

// IC50 lookup, key: O=C(C1CCN(c2ccc(S(=O)(=O)C3(C(=O)NO)CCOCC3)cc2)CC1)N1CCCCC1 [Example 149] 15.5

// IC50 lookup, key: CCOC(=O)C1CCCN(C(=O)C2CCCN(c3ccc(S(=O)(=O)C4(C(=O)NO)CCOCC4)cc3)C2)C1 (stereo not shown) [Example 160] 33.7

// IC50 lookup, key: O=C(C1CCN(c2ccc(S(=O)(=O)C3(C(=O)NO)CCOCC3)cc2)CC1)N(Cc1ccccc1)Cc1ccccc1 [Example 198] 14.5

// IC50 lookup, key: C#CCN1CCC(C(=O)O)(S(=O)(=O)c2ccc(Sc3ccc(Cl)cc3)cc2)CC1 [Example 44a, monohydrochloride] 0.2

// IC50 lookup, key: CCOC(=O)C1CCN(C(=O)C2CCCN(c3ccc(S(=O)(=O)C4(C(=O)NO)CCOCC4)cc3)C2)CC1 (stereo not shown) [Example 159] 15.6

// IC50 lookup, key: O=C(NC1CCc2ccccc21)C1CCN(c2ccc(S(=O)(=O)C3(C(=O)NO)CCOCC3)cc2)CC1 (stereo not shown) [Example 188] 9.4

----------
# test-system: recombinant human MMP-13 (Homo sapiens)
# test-protocol: biochemical
# protocol-conditions: Inhibition Table B
recorded-metric: IC50 (nM)
Provide only the numeric value, understood in nM.

// IC50 lookup, key: CN(C)CCCN(CCCN(C)C)C(=O)C1CCN(c2ccc(S(=O)(=O)C3(C(=O)NO)CCOCC3)cc2)CC1 40

// IC50 lookup, key: CCOC(=O)C1CCN(C(=O)N2CCN(c3ccc(S(=O)(=O)C4(C(=O)NO)CCOCC4)cc3)CC2)CC1 24

// IC50 lookup, key: CN1CCN(C(=O)C2CCCN(c3ccc(S(=O)(=O)C4(C(=O)NO)CCOCC4)cc3)C2)CC1 (centres unmarked) 90

// IC50 lookup, key: CCNC(=O)C1CCN(c2ccc(S(=O)(=O)C3(C(=O)NO)CCOCC3)cc2)CC1 4

// IC50 lookup, key: CCCCNC(=O)C1CCN(c2ccc(S(=O)(=O)C3(C(=O)NO)CCOCC3)cc2)CC1 6.1

// IC50 lookup, key: CN1CCN(C(=O)C2CCN(c3ccc(S(=O)(=O)C4(C(=O)NO)CCOCC4)cc3)CC2)CC1 14.5

----------
Exercise: for every item that follows, state its recorded IC50.
# test-system: recombinant human MMP-2 (Homo sapiens, UniProt P08253)
# test-protocol: biochemical
# protocol-conditions: Inhibition Table B
Provide only the numeric value, understood in nM.

// IC50 lookup, key: O=C(C1CCN(c2ccc(S(=O)(=O)C3(C(=O)NO)CCOCC3)cc2)CC1)N1CCC(O)(Cc2ccccc2)CC1 390

// IC50 lookup, key: O=C(C1CCN(c2ccc(S(=O)(=O)C3(C(=O)NO)CCOCC3)cc2)CC1)N1CCCC2CCCCC21 (stereo not drawn) 400
